- Test system: CSCs MiaPaca_2
- method-summary: MTT test on pancreatic Cancer Stem Cells MiaPaca_2
- Type: cell-based
- recorded-conditions: Homo sapiens, MIA PaCa-2; 12 hours; read-out: ED50 CSCs MiaPaca_2
experimental-readout: EC50 (µM)

CC(C)=CCc1c(O)cc(O)c(C=O)c1C(=O)c1c(O)cc(C)cc1O [MDN-0090]
20.8

---

Parameter: EC50. Scope: all listed entries.
- Test system: MiaPaca_2 cell line
- method-summary: CFSE assay (cell cycle inhibition, High content screening)
- Assay type: cell-based
- recorded-conditions: Homo sapiens, MIA PaCa-2; MiaPaca_2, 72 hours of treatment; read-out: ED50 CFSE assay
experimental-readout: EC50 (µM)

COc1cc(O)c(C=O)c(C(=O)c2c(O)cc(C)cc2O)c1CC=C(C)C [MDN-0092]
22.9
Cc1cc(O)c(C(=O)c2c(C=O)c(O)cc3c2C(=O)CC(C)(C)O3)c(O)c1 [MDN-0089]
3.33
CC(C)=CCc1c(O)cc(O)c(C=O)c1C(=O)c1c(O)cc(C)cc1O [MDN-0090]
5.27

---

- System: HepG2
- method-summary: Cytotoxicity on HepG2
- Assay type: cell-based
- recorded-conditions: 72 hours
experimental-readout: activity effect on HepG2 (in words)

Cc1cc(O)c(C(=O)c2c(C=O)c(O)cc3c2C(=O)CC(C)(C)O3)c(O)c1
medium activity effect
CC(C)=CCc1c(O)cc(O)c(C=O)c1C(=O)c1c(O)cc(C)cc1O
medium activity effect
COc1cc(O)c(C=O)c(C(=O)c2c(O)cc(C)cc2O)c1CC=C(C)C
medium activity effect

---

Parameter: EC50. Scope: all listed entries.
- Test system: MiaPaca_2
- method-summary: MTT assay in MiaPaca_2 tumoral pancreatic cell line
- Format: cell-based
- recorded-conditions: Homo sapiens, MIA PaCa-2; 72 hours of treatment; read-out: ED50 MiaPaca_2 (MTT assay)
experimental-readout: EC50

COc1cc(O)c(C=O)c(C(=O)c2c(O)cc(C)c(Cl)c2O)c1CC=C(C)C
6.47 µM
COc1cc(O)c(C=O)c(C(=O)c2c(O)cc(C)cc2O)c1CC=C(C)C
7.18 µM
CC(C)=CCc1c(O)cc(O)c(C=O)c1C(=O)c1c(O)cc(C)cc1O
8.84 µM
COc1cc(O)c2oc3cc(C)cc(O)c3c(=O)c2c1CC=C(C)C
> 50 µM
Cc1cc(O)c(C(=O)c2c(C=O)c(O)cc3c2C(=O)CC(C)(C)O3)c(O)c1
20.3 µM
Cc1cc(O)c(C(=O)c2c(C=O)c(O)cc3c2C=CC(C)(C)O3)c(O)c1
> 50 µM
